Tested on: L1210 leukemia ip in BDF1 mice, survival T/C
Assay: NCI In Vivo Anticancer Drug Screen. Data for tumor model L1210 Leukemia (intraperitoneal) in B6D2F1 (BDF1) mice
Conditions: endpoint: mean survival time; dose: 25.0 mg/kg/injection; schedule: Q04DX003 (ip); vehicle: Klucel (hydroxypropylcellulose) (HPC); higher = longer survival
Inconclusive results and toxic doses are left out.
readout type: T/C

Could you share which T/C value was measured for `CN(C(=O)CCl)c1ccccc1` ?
104 % of control

Also CCCC(C)(COC(N)=O)COC(=O)NC(C)C (configuration not stated) , if possible.
101 % of control

Also CCCCC(CC)NC(=O)c1ccc(OC)cc1 (configuration not stated) , if possible.
105 % of control

Also C=C1C(=O)OC2/C=C(\C)C(O)C/C=C(/C)CCC12 (configuration not stated) , if possible.
96 % of control

Also `CC(=O)Oc1ccc(N2C(=O)C=CC2=O)cc1` , if possible.
118 % of control

Also `Oc1c(-c2ccccn2)cccc1C(F)(F)F` , if possible.
102 % of control

Also `CC(C)/C=C(\C#N)C(=O)O` , if possible.
101 % of control

---

Test system: L1210 leukemia ip in BDF1 mice, survival T/C
Assay: NCI In Vivo Anticancer Drug Screen. Data for tumor model L1210 Leukemia (intraperitoneal) in B6D2F1 (BDF1) mice
Settings: endpoint: mean survival time; dose: 100.0 mg/kg/injection; schedule: Q04DX003 (ip); vehicle: saline with Tween-80; higher = longer survival
Protocol: The antitumor activity of compounds was measured in mice bearing transplantable tumors. Survival or tumor size were measured and the results are expressed as the measurement made in the treated group (T) divided by the measurement made in the vehicle treated control group (C). The tumor model used in this assay is L1210 Leukemia (intraperitoneal) in B6D2F1 (BDF1) mice
Inconclusive results and toxic doses are left out.
Could you please report measured T/C for the items listed next?

Could you share which T/C value was measured for CC1(C)CC(C)(c2ccc(O)cc2)Oc2ccccc21 (stereo not given) ?
93 % of control

Also `NCCc1cnc(N=Nc2ccc(S(=O)(=O)N(CCCl)CCCl)cc2)[nH]1` , if possible.
93 % of control

Also `Cc1ccc(C(=O)CCC(=O)O)cc1` , if possible.
102 % of control

Also `CCCN(CCC)N=Nc1ccccc1C(N)=O` , if possible.
104 % of control

Also `N#CCCn1cnc2c(N)ncnc21` , if possible.
103 % of control

Also `Clc1ccc2nncn2n1` , if possible.
100 % of control

Also `C/C=C/CNc1ccc(C)cc1` , if possible.
101 % of control

Also NC(c1ccccc1)c1c(O)ccc2ccccc12 (stereo not given) , if possible.
101 % of control

Also `C[n+]1ccsc1` , if possible.
104 % of control

Also COC(=O)C(CSCSC)NC(=O)/C=C/c1ccccc1C (stereo not given) , if possible.
95 % of control

---

Could you please report measured T/C for the items listed next?
Test system: L1210 leukemia ip in BDF1 mice, survival T/C
Assay: NCI In Vivo Anticancer Drug Screen. Data for tumor model L1210 Leukemia (intraperitoneal) in B6D2F1 (BDF1) mice
Settings: endpoint: mean survival time; dose: 100.0 mg/kg/injection; schedule: Q04DX003 (ip); vehicle: Klucel (hydroxypropylcellulose) (HPC); higher = longer survival
Toxic doses and inconclusive results are not listed.

Could you share which T/C value was measured for CC(C#N)(Nc1ccccc1)c1ccc(Br)cc1 (stereo not given) ?
95 % of control

Also `CCC(=O)Nc1ccc(C)cc1C` , if possible.
97 % of control

Also `CCN(CC)CCOC(=O)Cc1ccccc1` , if possible.
97 % of control

Also `Cc1ccc(N=C(c2ccccc2)c2ccc([N+](=O)[O-])cc2)cc1` , if possible.
105 % of control

Also `O=C1Cc2ccccc2/C=C\c2ccccc21` , if possible.
102 % of control

Also `C=CCOP(=O)(OCC=C)OCC=C` , if possible.
91 % of control

Also `CC(=O)N(C(=O)c1ccccc1)c1ccc(NS(=O)(=O)c2ccc(C)cc2)cc1` , if possible.
94 % of control

Also `N#Cc1cc(C(Cl)(Cl)Cl)ccc1C(Cl)(Cl)Cl` , if possible.
97 % of control

Also `COc1ccc(NC(=O)/C=C/c2ccc([N+](=O)[O-])cc2)cc1S(=O)(=O)F` , if possible.
98 % of control

Also `CS(=O)(=O)OCCN(CCOS(C)(=O)=O)c1ccc(C=Nc2ccc(C(=O)O)cc2)c(Cl)c1` , if possible.
120 % of control

Also `Clc1ccc2c(c1)/C(=C/c1ccccc1Cl)c1cc(Cl)cc(Cl)c1-2` , if possible.
91 % of control

Also `Cc1cc(Cl)ccc1OC(=O)Nc1c(C)cccc1C` , if possible.
98 % of control

Also `Cc1ccc(O)c(S(=O)(=O)F)c1` , if possible.
104 % of control

Also `O=C(Nc1cccc(Cl)c1)Nc1cccc(Cl)c1` , if possible.
102 % of control

Also CCCCCCCCCCCCCCCCC1(c2ccccc2)NC(=O)NC1=O (stereo not given) , if possible.
93 % of control

Also CC(C)(C)C1CN1C(=S)Nc1ccccc1 (stereo not given) , if possible.
104 % of control

Also `Cc1cc2[nH]c(=O)c(=O)[nH]c2cc1C` , if possible.
94 % of control

Also CS(=O)(=O)OCC1C2CCC(CC2)C1COS(C)(=O)=O (stereo not given) , if possible.
100 % of control

Also CC(=O)C1(c2ccccc2)OC1c1ccccc1 (stereo not given) , if possible.
90 % of control

Also COC(=O)C1CCC2(C)CCC(=O)C(C)C2C1 (stereo not given) , if possible.
104 % of control

Also `O=C(O)/C=C/C(=O)NCCNC(=O)/C=C/C(=O)O` , if possible.
96 % of control

Also CCOC(=O)C1(C(=O)OCC)NC(=O)CC1c1ccccc1 (stereo not given) , if possible.
92 % of control

Also COC(=O)C(CSc1ccccc1)NC(=O)c1ccccc1 (stereo not given) , if possible.
101 % of control

Also `COc1ccc(NC(=O)Nc2ccc(Cl)cc2)cc1` , if possible.
104 % of control

Also `COC(=O)c1cc([N+](=O)[O-])cc2ccccc12` , if possible.
105 % of control

Also `O=C(NCCCl)C(Cl)(Cl)Cl` , if possible.
98 % of control

Also `O=C(NC1CCCCC1)c1ccc(Cl)cc1` , if possible.
94 % of control

Also `CCc1ccccc1NC(=O)Nc1ccc(Cl)c(Cl)c1` , if possible.
98 % of control

Also `O=CNc1cc([N+](=O)[O-])cc([N+](=O)[O-])c1O` , if possible.
104 % of control

Also `Nc1nc(-c2ccccc2N=NN2CCOCC2)nc2ccccc12` , if possible.
101 % of control

Also `O=C(O)c1cccc2c1-c1ccc(Cl)cc1C2` , if possible.
104 % of control

Also `CC(C)=CCC/C(C)=C/CC/C(C)=C/COC(N)=O` , if possible.
93 % of control

Also `CCOC(=O)c1cc(C)n(-c2ccc(C(=O)O)cc2)c1C` , if possible.
98 % of control

Also `O=C1c2ccccc2S(=O)(=O)N1CCN1C(=O)c2ccccc2S1(=O)=O` , if possible.
94 % of control

Also `Cc1ccc(N2CCN(CCCN3CCN(c4ccc(Cl)cc4)CC3)CC2)cc1` , if possible.
109 % of control

---

Could you please report measured T/C for the items listed next?
Tested on: L1210 leukemia ip in BDF1 mice, survival T/C
Assay: NCI In Vivo Anticancer Drug Screen. Data for tumor model L1210 Leukemia (intraperitoneal) in B6D2F1 (BDF1) mice
Conditions: endpoint: mean survival time; dose: 200.0 mg/kg/injection; schedule: Q01DX009 (ip); vehicle: saline with Tween-80; higher = longer survival
Description: The antitumor activity of compounds was measured in mice bearing transplantable tumors. Survival or tumor size were measured and the results are expressed as the measurement made in the treated group (T) divided by the measurement made in the vehicle treated control group (C). The tumor model used in this assay is L1210 Leukemia (intraperitoneal) in B6D2F1 (BDF1) mice
Toxic doses and inconclusive results are not listed.

Could you share which T/C value was measured for `O=c1oc(-c2cccc([N+](=O)[O-])c2)nc2ccccc12` ?
93 % of control

Also `COc1ccc(OC(=O)Nc2ccc(Cl)cc2Cl)cc1` , if possible.
98 % of control

Also `CCCOP(=S)(NCCOC)OCCC` , if possible.
100 % of control

Also `Cc1ccc(C)c(C(=O)CCC(=O)O)c1` , if possible.
94 % of control

Also CCC(=O)C(CC)c1ccccc1OC (stereo unspecified) , if possible.
95 % of control

Also `CNC(=O)Oc1cccc(NC(=O)C=C(C)C)c1` , if possible.
89 % of control
